Molecular target: Phenylethanolamine N-methyltransferase (Homo sapiens) (UniProt P11086)
Sequence (P11086 whole entry, looked up): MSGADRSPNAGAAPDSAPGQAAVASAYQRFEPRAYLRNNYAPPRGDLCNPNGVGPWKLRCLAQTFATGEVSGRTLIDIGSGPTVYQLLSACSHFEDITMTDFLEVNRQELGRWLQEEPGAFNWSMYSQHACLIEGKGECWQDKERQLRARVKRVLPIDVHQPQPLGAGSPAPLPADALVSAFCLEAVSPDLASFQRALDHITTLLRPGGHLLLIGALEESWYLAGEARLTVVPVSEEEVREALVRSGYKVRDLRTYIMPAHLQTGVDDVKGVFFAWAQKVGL
Test: Primary Screen for Target Class Profiling of Small Molecule Inhibitors of Methyltransferases; also: % is scaled to controls: 0 for no effect and ±100 for the full control effect
Conditions: purified enzyme, MTase-Glo SAH luminescence; measured here: PNMT inhibition; at 40 µM; stronger effect = lower value
Among all 25,000 compounds or so, about 970 (3.9%) were called active. Another 8% or so got no clear call; they are omitted. What follows is part of a selection rich in actives, with near analogues and random picks from the rest.
Each record here notes measured activity change, negative = inhibition.
Supply the numeric figure in %, leaving out any unit text.

compound	target under test	metric name	measurement
CCCn1c(=O)c2ccc(C(=O)NC3CCCC3)cc2n2c(=O)n(Cc3ccc(F)cc3Cl)nc12	Phenylethanolamine N-methyltransferase (Homo sapiens) (UniProt P11086)	activity change, negative = inhibition	-1.78
Clc1cc(NCc2ccccn2)n2nccc2n1	Phenylethanolamine N-methyltransferase (Homo sapiens) (UniProt P11086)	activity change, negative = inhibition	6.59

query: Can you look up the measured activity change, negative = inhibition of COC(=O)[C@]12C(=O)C(C)=C(O)[C@@]1(C)C(C)=CC1[C@@]34CC[C@@H](OC(C)=O)C(C)(C)C3[C@H](C[C@]12C)OC4=O (stereo not given in full) for me?
result: 3.04
